Target: T1, recombinant extracellular domain (ECD) of human TF, amino acid 1-219 of the mature chain, C-terminal His6-tag (human, UniProt P13726 33-251)
T1 construct: expressed in a mammalian system; used for ELISA and Biacore; biotinylated by NHS-ester for the Fab ELISA; also called His6-TF-ECD1-219; HumanTF1-219
Experiment: Biacore
Below, each entry is listed alongside its reported koff.
Your answer should be a plain number; it is taken to be in s⁻¹.

For the binder M37 (antibody, V domains shown, complete MAb; FR4 is its own entry; also called H19/L2) VH: QVQLVQSGAEVKKPGSSVKVSCKASGYTFITYWIEWVRQAPGQGLEWMGDILPGSGSTNYNENFKGRVTITADESTSTAYMELSSLRSEDTAVYYCARSGYYGNSGFAYWGQGTLVTVSS VL: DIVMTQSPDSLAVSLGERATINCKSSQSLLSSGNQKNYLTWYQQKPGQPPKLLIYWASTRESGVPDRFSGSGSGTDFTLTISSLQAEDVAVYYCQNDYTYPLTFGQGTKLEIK , what koff is on record?
3.7e-05

For the binder M12 (antibody, V domains shown, complete MAb; FR4 is its own entry; also called H15/L5) VH: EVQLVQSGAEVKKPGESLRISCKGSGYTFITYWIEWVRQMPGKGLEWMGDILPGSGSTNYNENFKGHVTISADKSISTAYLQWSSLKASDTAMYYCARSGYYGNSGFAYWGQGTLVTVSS VL: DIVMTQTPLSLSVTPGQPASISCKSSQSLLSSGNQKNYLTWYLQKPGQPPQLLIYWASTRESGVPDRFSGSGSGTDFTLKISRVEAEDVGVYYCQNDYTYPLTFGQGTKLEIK , what koff is on record?
5.1e-05

For the binder M1612 (antibody, V domains shown, complete MAb; FR4 is its own entry; also called H133/L3; TF7M1612) VH: EVQLVQSGAEVKKPGESLRISCKGSGYTFNPYWIEWVRQMPGKGLEWMGDILPGTGYTNYSPSFQGHVTISADKSISTAYLQWSSLKASDTAMYYCARSGYYGNSGFAYWGQGTLVTVSS VL: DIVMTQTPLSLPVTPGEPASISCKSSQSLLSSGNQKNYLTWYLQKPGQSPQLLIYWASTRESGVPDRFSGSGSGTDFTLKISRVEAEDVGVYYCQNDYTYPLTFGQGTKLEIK , what koff is on record?
6.3e-05
